# assay text: protein stability index of a GFP-peptide fusion (yeast GPS) (PSI 1-4); higher = more stable; sorted into four equal gates, so the index is relative within each strain
# recorded conditions: pdr5∆
result type: protein stability index
Give your answer as a number; write no unit.

Please report the recorded protein stability index for NFNPDNGFAPISEVMED [FAS1] . 3.06

Could you share which protein stability index value was measured for EAPAGNIDTITDAMTES [MCD1] ? 3.04

Query: protein stability index; subject: SGTDGSTIGILLLTIQL [SRP72] 2.91

Bench note: what protein stability index did ATSDNKTTNTTPSFSFG [YJL041W/NSP1] show? 3.05

Record request: protein stability index value, item SLQEDVSFDFNGVPGQA [MED8] 2.97

Please give the measured protein stability index for this sequence: IRARIPFYGSYTETDPA [SRP54] 2.91

Value lookup for protein stability index; key = IQLNGGSISEKVDWARE [RPL3] 2.96

Record request: protein stability index value, item DGSAIEDDDIRSRMLPT [SNF5] 3.03

For KALPMLEQVEFEKNTIL [MED4] , what is its reported protein stability index? 3.04

What value of measured protein stability index is listed for DKSLDSSNASFNNQGKL [MED1] ? 3.07

====

# assay text: protein stability index of a GFP-peptide fusion (yeast GPS) (PSI 1-4); higher = more stable; sorted into four equal gates, so the index is relative within each strain
# recorded conditions: doa10∆
result type: protein stability index
Hey, just send me the number, nothing else.

protein stability index lookup needed for RARKDRMRVSVLEKYEV [SSN3] , thanks. 2.02

Param item = GKHSQEQNSSSAKPSQI [SIR4] ; retrieve measured protein stability index. 2.97

Suppose we examine the sequence WTVLFRKHHKKGITEEV [RPL24A] ; what protein stability index value has been reported? 3.08

Entry under review: QGPVKNTQLHGPSATDP [RGR1] . Reported protein stability index? 2.93

For the sequence shown here, SNTDETKGENYQLVKTL [FAS2] , give the reported protein stability index. 2.94

Report protein stability index for SPMLSISNLTQEQVQDY [FAS1] please. 2.97

====

# assay text: protein stability index of a GFP-peptide fusion (yeast GPS) (PSI 1-4); higher = more stable; sorted into four equal gates, so the index is relative within each strain
# recorded conditions: doa10∆
Answer each item with its documented protein stability index.
// response body must contain only the number

What does the record list as protein stability index for KSLALLGYNFDGSAIED [SNF5] ? 3.01

# protein stability index lookup, item KNKDSLVSNPHEIYGSM [SRB4] 3.04

# protein stability index lookup, item ASEREELALIEEAYDNP [PRP8] 3

====

# assay text: protein stability index of a GFP-peptide fusion (yeast GPS) (PSI 1-4); higher = more stable; sorted into four equal gates, so the index is relative within each strain
# recorded conditions: ubr1∆
Mark label 1 for reported protein stability index of 2 or greater; mark label 0 for anything smaller.

// inclusive: protein stability index at least 2? input: TLEAKIGGLLSKVREEV [RPO31] label 1

Hi team, for KFLQEFINLLLNCCGSV [IRR1] , is the recorded protein stability index at or above 2? label 0

Does the sequence VHPVNEREPVPLGILHI [RRP45] have recorded protein stability index that is 2 or more? label 1

Textbook exercise: given the entry AVKDQQKYTKEMIDSHI [SNF2] , state whether its protein stability index is greater than or equal to 2. label 1

Entry NNGSKDHGDGILLIDSE [RPN9] : is its protein stability index no less than 2? label 1

Please tell me: is the sequence NQIQRQQQQQFRHHVQI [SNF5] at or over 2 in terms of protein stability index? label 0

Quick check, protein stability index >= 2? ERDFYHSLREYINGKAT [RPO31] label 0

Does the reported protein stability index for ESITYQKIMILQRTILN [RGR1] fall at or above the 2 mark? label 1

For this sequence, is measured protein stability index 2 or higher? RNVTIQLENADTGTLDT [RPN2] label 1

Say whether GMYALRERRIHVTQEDF [RPT6] shows protein stability index of 2 or more. label 1

Say whether SAKTRSHNWAAKAKRRH [RPL37B] shows protein stability index of 2 or more. label 1

Is protein stability index at least 2? Consider RLNENKKIGCYMFANLE [CSN12] label 1
